# EC50 per entry
experimentalTarget: Alpha-2A adrenergic receptor (Homo sapiens)
Sequence (P08913 whole entry): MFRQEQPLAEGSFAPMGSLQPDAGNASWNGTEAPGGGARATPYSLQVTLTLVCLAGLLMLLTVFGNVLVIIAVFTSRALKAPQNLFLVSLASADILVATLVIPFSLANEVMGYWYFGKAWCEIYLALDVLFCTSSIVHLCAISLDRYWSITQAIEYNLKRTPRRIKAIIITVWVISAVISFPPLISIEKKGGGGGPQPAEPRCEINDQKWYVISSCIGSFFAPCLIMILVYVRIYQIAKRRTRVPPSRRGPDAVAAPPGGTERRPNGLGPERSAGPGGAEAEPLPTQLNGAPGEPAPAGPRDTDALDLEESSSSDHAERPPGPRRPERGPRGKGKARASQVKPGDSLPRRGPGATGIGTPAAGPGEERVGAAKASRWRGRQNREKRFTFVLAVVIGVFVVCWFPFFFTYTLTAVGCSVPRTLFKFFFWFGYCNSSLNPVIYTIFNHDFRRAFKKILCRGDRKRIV
measurementNotes: Agonist potency at Alpha-2A adrenergic receptor expressed in CHO cells
Assay type: functional, cell-based
# value in nM; strip the unit string

CC(C)Sc1ccccc1NCC1=NCCN1
417

Pending compound:
Give EC50 (Alpha-2A adrenergic receptor (Homo sapiens)) of the following compound: "CCSc1ccccc1NCC1=NCCN1" 251

* * *

experimentalTarget: Alpha-2C adrenergic receptor (Homo sapiens, UniProt P18825)
Sequence (P18825 whole entry): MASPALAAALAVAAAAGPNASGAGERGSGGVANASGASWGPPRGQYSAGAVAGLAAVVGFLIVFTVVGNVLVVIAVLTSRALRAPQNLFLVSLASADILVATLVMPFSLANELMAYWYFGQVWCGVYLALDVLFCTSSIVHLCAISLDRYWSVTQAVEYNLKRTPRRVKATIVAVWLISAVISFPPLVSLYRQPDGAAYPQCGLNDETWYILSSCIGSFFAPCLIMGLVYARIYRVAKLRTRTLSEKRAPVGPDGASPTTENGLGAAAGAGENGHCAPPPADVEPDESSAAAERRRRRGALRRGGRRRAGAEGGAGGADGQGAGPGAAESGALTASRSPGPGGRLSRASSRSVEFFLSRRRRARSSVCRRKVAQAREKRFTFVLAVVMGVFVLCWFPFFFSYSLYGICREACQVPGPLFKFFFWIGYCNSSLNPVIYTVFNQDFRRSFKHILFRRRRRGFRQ
pKi: −log10 of the molar value.
# pKi per entry

Sample records with pKi:
COc1ccc(S(C)(=O)=O)c(NCC2=NCCN2)c1
< 5.30
CC(C)S(=O)(=O)c1ccccc1NCC1=NCCN1
< 5.30

Pending molecule:
Data request, read-out pKi, for "CS(=O)(=O)c1cc(F)ccc1NCC1=NCCN1" < 5.30

* * *

experimentalTarget: Alpha-1B adrenergic receptor (Homo sapiens)
measurementNotes: Agonist potency at Alpha-1B adrenergic receptor expressed in rat-1 fibroblasts
Format: functional
pEC50: −log10 of the molar value.
recordedEndpoint: pEC50

Sample records with pEC50:
CS(=O)(=O)c1cccc(F)c1NCC1=NCCN1
< 4.00
O=S1(=O)CCCc2cccc(NCC3=NCCN3)c21
< 4.00
C[S+]([O-])c1ccccc1NCC1=NCCN1 (configuration not stated)
< 4.00
CS(=O)(=O)c1cc(F)ccc1NCC1=NCCN1
< 4.00
CS(=O)(=O)c1c(F)cccc1NCC1=NCCN1
< 4.00
COc1ccc(S(C)(=O)=O)c(NCC2=NCCN2)c1
< 4.00

Data request, read-out pEC50, for "CS(=O)(=O)c1ccccc1NCC1=NCCN1" < 4.00

Try "CC(C)S(=O)(=O)c1ccccc1NCC1=NCCN1" next. < 5.00

Try "CS(=O)(=O)c1ccc(C(F)(F)F)cc1NCC1=NCCN1" next. < 4.00

* * *

experimentalTarget: Alpha-1B adrenergic receptor (Homo sapiens)
Sequence (P35368 whole entry): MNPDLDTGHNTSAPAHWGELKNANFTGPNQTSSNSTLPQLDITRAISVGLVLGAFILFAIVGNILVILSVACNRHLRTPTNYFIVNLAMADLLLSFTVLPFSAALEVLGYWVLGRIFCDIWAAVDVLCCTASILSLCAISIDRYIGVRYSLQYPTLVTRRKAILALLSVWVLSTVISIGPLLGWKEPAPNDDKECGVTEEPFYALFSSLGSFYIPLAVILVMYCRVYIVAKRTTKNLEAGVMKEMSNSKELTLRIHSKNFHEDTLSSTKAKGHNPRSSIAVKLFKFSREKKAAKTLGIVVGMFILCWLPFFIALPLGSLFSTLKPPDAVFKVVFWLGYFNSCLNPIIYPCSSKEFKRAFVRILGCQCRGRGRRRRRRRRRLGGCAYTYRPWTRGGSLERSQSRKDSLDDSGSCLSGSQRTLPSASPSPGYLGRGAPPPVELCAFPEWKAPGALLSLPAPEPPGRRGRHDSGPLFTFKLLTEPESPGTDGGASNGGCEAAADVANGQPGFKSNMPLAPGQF
measurementNotes: Agonist potency at Alpha-1B adrenergic receptor expressed in rat-1 fibroblasts
Type: functional
# EC50 per entry

Data request, read-out EC50, for "CS(=O)(=O)c1ccc(F)cc1NCC1=NCCN1" > 100 µM

Try "CS(=O)(=O)Nc1ccc(F)c([C@@H](O)CN)c1" next. > 100 µM

Try "CCS(=O)(=O)c1ccccc1NCC1=NCCN1" next. > 100 µM
